The reported numbers originate from ChEMBL document CHEMBL4229455.

test system: OVCAR-3; assay: Cytotoxicity against human OVCAR3 cells assessed as cell growth at 10 uM after 48 hrs by SRB assay relative to control; type: functional; settings: OVCAR-3, 48 h, read-out: Activity
measurement-name: growth at 10 µM

CC(C)n1cc(C2=C(c3cn(C)c4ccccc34)C(=O)N(O)C2=O)c2ccccc21 87.6%
Cn1cc(C2=C(c3cn(C)c4ncccc34)C(=O)NC2=O)c2ccccc21 25 to 50.2%

Here's the next entry for you.
Query the reported growth at 10 µM for OVCAR-3; item: `N#CCCCCCn1cc(C2=C(c3cn(CCCCCC#N)c4ccccc34)C(=O)N(O)C2=O)c2ccccc21`
13 to 50.6%

----------
biological target: Serine/threonine-protein kinase haspin (Homo sapiens) (UniProt Q8TF76); experiment: Inhibition of recombinant human haspin kinase domain expressed in bacteria assessed as residual activity at 10 uM using histone H3 (1 to 21 residues) peptide as substrate in presence of [gamma-33P]ATP
Sequence (Q8TF76 whole entry, the tested form may be a part): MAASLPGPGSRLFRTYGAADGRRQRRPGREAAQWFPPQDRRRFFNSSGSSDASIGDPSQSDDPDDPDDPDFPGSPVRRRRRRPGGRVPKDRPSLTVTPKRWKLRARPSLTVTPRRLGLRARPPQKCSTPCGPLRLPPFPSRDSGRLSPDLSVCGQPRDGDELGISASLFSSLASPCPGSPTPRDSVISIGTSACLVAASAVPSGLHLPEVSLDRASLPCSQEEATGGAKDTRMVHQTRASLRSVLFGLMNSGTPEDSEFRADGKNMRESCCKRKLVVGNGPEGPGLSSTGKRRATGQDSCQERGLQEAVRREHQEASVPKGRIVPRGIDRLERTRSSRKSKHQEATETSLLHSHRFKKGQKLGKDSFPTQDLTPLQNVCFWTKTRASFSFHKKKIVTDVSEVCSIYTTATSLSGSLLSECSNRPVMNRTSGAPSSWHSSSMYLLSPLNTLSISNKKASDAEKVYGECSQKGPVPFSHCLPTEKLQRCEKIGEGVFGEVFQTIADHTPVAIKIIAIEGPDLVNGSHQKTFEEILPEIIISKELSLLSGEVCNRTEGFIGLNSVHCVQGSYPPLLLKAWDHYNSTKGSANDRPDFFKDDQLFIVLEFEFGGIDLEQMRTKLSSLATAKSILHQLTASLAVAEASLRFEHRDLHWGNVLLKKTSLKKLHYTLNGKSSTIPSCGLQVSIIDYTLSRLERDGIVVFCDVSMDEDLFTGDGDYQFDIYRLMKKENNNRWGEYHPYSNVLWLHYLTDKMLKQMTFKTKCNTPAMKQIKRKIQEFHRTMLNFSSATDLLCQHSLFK
Catalogue of molecules with associated Activity
Your answer should be a number followed by the unit of measure.

CCn1cc(C2=C(c3cn(C)c4ccccc34)C(=O)N(O)C2=O)c2ccccc21 133%
Cn1cc(C2=C(c3cn(C)c4ncccc34)C(=O)NC2=O)c2ccccc21 101%
O=C1C(c2c[nH]c3ccccc23)=C(c2c[nH]c3ncccc23)C(=O)N1O 98%
Cn1cc(C2=C(c3cn(C)c4ccccc34)C(=O)N(O)C2=O)c2ccccc21 118%
Cn1cc(C2=C(c3cn(CCCCCC(=O)O)c4ccccc34)C(=O)N(O)C2=O)c2ccccc21 103%

Here's the next entry for you.
I would be grateful if you could share the reported Activity for `Cn1cc(C2=C(c3c[nH]c4ccccc34)C(=O)N(O)C2=O)c2ccccc21` .
112%
